The following sequences are listed with their measured terephthalic acid values.
# ASSAY_NAME: terephthalic acid (TPA) released, HPLC; higher = more TPA released; extreme values may be limits of the assay
# MEASUREMENT_CONDITIONS: PET substrate: aFilm; 60 °C; pH 8.5; 24 h

ITEM_SEQUENCE	terephthalic acid
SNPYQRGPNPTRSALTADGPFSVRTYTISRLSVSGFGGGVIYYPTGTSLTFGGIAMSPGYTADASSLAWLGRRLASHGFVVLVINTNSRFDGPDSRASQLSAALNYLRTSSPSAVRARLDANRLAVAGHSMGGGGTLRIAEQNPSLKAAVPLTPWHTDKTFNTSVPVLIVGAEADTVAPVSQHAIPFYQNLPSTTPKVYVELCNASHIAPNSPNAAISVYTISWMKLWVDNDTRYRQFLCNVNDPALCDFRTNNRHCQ [LCC-ICCG RIP]	0.346 mM
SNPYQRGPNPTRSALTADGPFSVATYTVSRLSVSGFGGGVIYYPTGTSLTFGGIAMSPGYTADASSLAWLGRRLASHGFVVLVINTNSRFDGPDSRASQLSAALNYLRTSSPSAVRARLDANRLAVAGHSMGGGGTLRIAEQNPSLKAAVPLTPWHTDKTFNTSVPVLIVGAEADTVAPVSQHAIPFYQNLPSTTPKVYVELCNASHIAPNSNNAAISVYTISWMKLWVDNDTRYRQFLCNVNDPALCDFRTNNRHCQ [LCC-ICCG]	0.472 mM
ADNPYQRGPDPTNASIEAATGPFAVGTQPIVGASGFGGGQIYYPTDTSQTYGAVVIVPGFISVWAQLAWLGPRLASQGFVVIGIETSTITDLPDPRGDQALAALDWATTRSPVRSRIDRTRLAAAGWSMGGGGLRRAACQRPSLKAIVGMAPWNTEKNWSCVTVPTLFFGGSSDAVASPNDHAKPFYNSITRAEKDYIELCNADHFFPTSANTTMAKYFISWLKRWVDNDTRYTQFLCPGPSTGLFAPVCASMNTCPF [CaPETaseM9]	0.0537 mM

Let us move to another entry and its terephthalic acid.
Prompt: GET /values?readout=terephthalic acid&item= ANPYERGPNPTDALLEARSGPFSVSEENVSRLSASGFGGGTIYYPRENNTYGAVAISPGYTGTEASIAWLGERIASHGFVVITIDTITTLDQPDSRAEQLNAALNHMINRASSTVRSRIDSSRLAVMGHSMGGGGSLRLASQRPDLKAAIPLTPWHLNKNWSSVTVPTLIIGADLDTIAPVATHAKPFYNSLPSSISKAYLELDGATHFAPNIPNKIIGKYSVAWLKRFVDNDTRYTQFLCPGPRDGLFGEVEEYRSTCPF [TfCut2]
Completion: 0.0862 mM

====

# ASSAY_NAME: BHET released, HPLC; higher = more BHET released; extreme values may be limits of the assay
# MEASUREMENT_CONDITIONS: PET substrate: cryPow; 60 °C; pH 4.5; 24 h
MEASURED_QUANTITY: BHET released (mM)
Note: unit mM is implicit; provide only the numeric part.

ITEM_SEQUENCE	RESULT_UNIT	READING
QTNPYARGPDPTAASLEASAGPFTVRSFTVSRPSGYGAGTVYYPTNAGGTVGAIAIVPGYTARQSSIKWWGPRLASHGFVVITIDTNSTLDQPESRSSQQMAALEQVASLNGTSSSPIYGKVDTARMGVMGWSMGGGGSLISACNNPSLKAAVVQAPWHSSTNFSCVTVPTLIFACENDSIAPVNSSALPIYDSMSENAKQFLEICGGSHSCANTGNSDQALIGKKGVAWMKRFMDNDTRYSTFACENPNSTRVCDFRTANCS [Z1-PETase]	mM	0

Let us move to another entry and its BHET released.
Prompt: GET /values?readout=BHET released&item= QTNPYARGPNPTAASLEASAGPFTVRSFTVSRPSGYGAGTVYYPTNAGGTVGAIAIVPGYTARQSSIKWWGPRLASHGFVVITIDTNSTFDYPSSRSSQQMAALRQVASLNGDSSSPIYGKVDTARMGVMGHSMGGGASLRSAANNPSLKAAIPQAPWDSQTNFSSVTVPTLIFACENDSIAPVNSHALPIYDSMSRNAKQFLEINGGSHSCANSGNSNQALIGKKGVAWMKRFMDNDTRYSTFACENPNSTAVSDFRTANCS [DuraPETase]
Completion: 0
